Reference source for all entries: the supplement of paper PMC11061612

tested on: Hs-445 (Non-Cancerous); experiment: Bliss excess, mean over the matrix (fraction); higher = more synergy
Below, each entry is listed with its recorded Bliss excess.
Could you respond with only the numeric value?

COMPOUND	QUANTITATIVE_RESULT
CC1(C)CCC(CN2CCN(c3ccc(C(=O)NS(=O)(=O)c4ccc(NCC5CCOCC5)c([N+](=O)[O-])c4)c(Oc4cnc5[nH]ccc5c4)c3)CC2)=C(c2ccc(Cl)cc2)C1 [Venetoclax] + C[C@@H]1COCCN1C2=NC(=NC(=C2)C3(CC3)[S@](=N)(=O)C)C4=C5C=CNC5=NC=C4 [AZD6738] (first compound max 1 µM, 7x7, partner max 10 µM)	0.0577
NC1(C(=O)N[C@@H](CCO)c2ccc(Cl)cc2)CCN(c2ncnc3[nH]ccc23)CC1 [Capivasertib] + CCN(CCO)CCCOc1ccc2c(Nc3cc(CC(=O)Nc4cccc(F)c4)[nH]n3)ncnc2c1 [AZD2811] (first compound max 10 µM, 7x7, partner max 1 µM)	-0.0895
C[C@@H](c1ccc2nccn2c1)n1nnc2ncc(-c3cnn(C)c3)nc21 [Savolitinib] + Cc1c2c(nn1C)CSCc1cc(n(C)n1)CSc1cc(c3ccccc3c1)OCCCc1c(C(=O)O)n(C)c3c-2c(Cl)ccc13 [AZD5991] (first compound max 1 µM, 7x7, partner max 1 µM)	-0.0407

Requested read-out Bliss excess, target or system Hs-445 (Non-Cancerous), entry CS(=O)(=O)CCNCc1ccc(-c2ccc3ncnc(Nc4ccc(OCc5cccc(F)c5)c(Cl)c4)c3c2)o1 [Lapatinib] + C[C@@H](Oc1cc(-c2cnn(C3CCNCC3)c2)cnc1N)c1c(Cl)ccc(F)c1Cl [Crizotinib] (first compound max 10 µM, 7x7, partner max 10 µM)
0.0147

---

test system: SISO (Cervical Carcinoma); assay: Bliss excess, mean over the matrix (fraction); higher = more synergy
MEASURE: Bliss excess
Could you respond with only the numeric value?

COMPOUND	Bliss excess
Cc1c2c(nn1C)CSCc1cc(n(C)n1)CSc1cc(c3ccccc3c1)OCCCc1c(C(=O)O)n(C)c3c-2c(Cl)ccc13 [AZD5991] + CCN(CCO)CCCOc1ccc2c(Nc3cc(CC(=O)Nc4cccc(F)c4)[nH]n3)ncnc2c1 [AZD2811] (first compound max 1 µM, 7x7, partner max 1 µM)	0.108
CN(CCO)CC[C@H](CSc1ccccc1)Nc1ccc(S(=O)(=O)NC(=O)c2ccc(N3CCC([C@@H](O)c4ccccc4-c4ccc(Cl)cc4)CC3)cc2)cc1S(=O)(=O)C(F)(F)F [AZD4320] + C=CCn1c(=O)c2cnc(Nc3ccc(N4CCN(C)CC4)cc3)nc2n1-c1cccc(C(C)(C)O)n1 [AZD1775] (first compound max 1 µM, partner max 1 µM)	-0.0116

Next up:
Can you look up the measured Bliss excess of CC1(C)CCC(CN2CCN(c3ccc(C(=O)NS(=O)(=O)c4ccc(NCC5CCOCC5)c([N+](=O)[O-])c4)c(Oc4cnc5[nH]ccc5c4)c3)CC2)=C(c2ccc(Cl)cc2)C1 [Venetoclax] + Cn1cnc2c(F)c(Nc3ccc(Br)cc3Cl)c(C(=O)NOCCO)cc21 [Selumetinib] (first compound max 1 µM, 7x7, partner max 3 µM) for me?
-0.0162

---

Below, each entry is listed with its recorded combination Emax.
tested on: ECC10 (Gastric Carcinoma); experiment: combination Emax (second highest fraction inhibited in the dose matrix, 72 h); higher = more inhibition; extreme values may be limits of the assay
Could you respond with only the numeric value?

See these solved cases before continuing.
COMPOUND	MEASURE	QUANTITATIVE_RESULT
COc1cccc(OCCCN)c1-c1cc(Nc2cnc(C#N)cn2)n[nH]1 [Prexasertib] + C=CCn1c(=O)c2cnc(Nc3ccc(N4CCN(C)CC4)cc3)nc2n1-c1cccc(C(C)(C)O)n1 [AZD1775] (first compound max 1 µM, partner max 1 µM)	combination Emax	0.904
CN(CCO)CC[C@H](CSc1ccccc1)Nc1ccc(S(=O)(=O)NC(=O)c2ccc(N3CCC([C@@H](O)c4ccccc4-c4ccc(Cl)cc4)CC3)cc2)cc1S(=O)(=O)C(F)(F)F [AZD4320] + Nc1ccn([C@@H]2O[C@H](CO)[C@@H](O)C2(F)F)c(=O)n1 [Gemcitabine] (first compound max 1 µM, 7x7, partner max 0.3 µM)	combination Emax	1

Next up:
Can you look up the measured combination Emax of Cc1c2c(nn1C)CSCc1cc(n(C)n1)CSc1cc(c3ccccc3c1)OCCCc1c(C(=O)O)n(C)c3c-2c(Cl)ccc13 [AZD5991] + CC(=O)O[C@H]1C(=O)[C@@]2(C)[C@H]([C@H](OC(=O)c3ccccc3)[C@]3(O)C[C@H](OC(=O)[C@H](O)[C@@H](NC(=O)c4ccccc4)c4ccccc4)C(C)=C1C3(C)C)[C@]1(OC(C)=O)CO[C@@H]1C[C@@H]2O [Paclitaxel] (first compound max 1 µM, 7x7, partner max 3 µM) for me?
0.942
